# measurement.notes: Solubility in water
parameter.measured: solubility

-- ask Fill blank: measured solubility of the compound Cl.O=C(N[C@@H](c1ccccc1)[C@@H]1CC2CCN1CC2)c1c(Cl)ccc(C(F)(F)F)c1Cl [Form B] is ____.
-- reply > 200 mg/mL
